test system: Clone #69 CHO-K1 cells expressing EA-NLS/NRS and GR-PL; assay: EFC assay in stable clone #69 (CHO-K1, EA-NLS/NRS and GR-PL) with or without RU486 pre-incubation; format: cell-based; details: Low conc (nocodazole 1.11 μg/mL, colchicine 0.1 μ/mL, dexamethasone 30 μM, RU486 3.33 μM), overnight, vehicle pre-incubation
// R3 luminescence readout lookup, one value per entry
Enter the number alone.

Some compounds with known R3 luminescence readout results, for comparison:
{"columns": ["compound", "system.name", "R3 luminescence readout"],
 "data": [
  ["COc1cc2c(c(OC)c1OC)-c1ccc(OC)c(=O)cc1[C@@H](NC(C)=O)CC2 [Colchicine, colchicine]", "Clone #69 CHO-K1 cells expressing EA-NLS/NRS and GR-PL", 1007],
  ["C[C@@H]1C[C@H]2[C@@H]3CCC4=CC(=O)C=C[C@]4(C)[C@@]3(F)[C@@H](O)C[C@]2(C)[C@@]1(O)C(=O)CO [Dexamethasone, dexamethasone]", "Clone #69 CHO-K1 cells expressing EA-NLS/NRS and GR-PL", 1016],
  ["COC(=O)Nc1nc2ccc(C(=O)c3cccs3)cc2[nH]1 [Nocodazole, nocodazole]", "Clone #69 CHO-K1 cells expressing EA-NLS/NRS and GR-PL", 11606]
]}

In the following, a different compound is considered.
query: What does the record list as R3 luminescence readout for CC#C[C@]1(O)CC[C@H]2[C@@H]3CCC4=CC(=O)CCC4=C3[C@@H](c3ccc(N(C)C)cc3)C[C@@]21C [RU486] ?
result: 2298
